Reference source: patent US9521846B2

Non-standard residues stand in square brackets, D forms with d. Residues, ends and D or L forms follow the SMILES beside them. Chg = N[C@H](C(=O)O)C1CCCCC1; Dab = NCC[C@H](N)C(=O)O; Aib = CC(C)(N)C(=O)O
Hi! I'm sharing some Average MIC results obtained with P. aeruginosa.

compound: CC[C@H](C)[C@@H]1NC(=O)[C@H](Cc2c[nH]c3ccccc23)NC(=O)[C@H]([C@@H](C)O)NC(=O)[C@@H]2CCCN2C(=O)[C@H]2CCCN2C(=O)[C@H](CCN)NC(=O)[C@H](C2CCCCC2)NC(=O)[C@H](CCN)NC(=O)[C@H](CCN)NC(=O)[C@H](Cc2c[nH]c3ccccc23)NC(=O)[C@H](CCN)NC(=O)[C@H](CCN)NC(=O)[C@H](CCCCN)NC(=O)[C@H](CCN)NC1=O [Example 11] (cyclo(TWI[Dab]K[Dab][Dab]W[Dab][Dab][Chg][Dab][dP]P))
value.comparator: >
Average MIC (µg/mL): 1

compound: CC[C@H](C)[C@@H]1NC(=O)[C@H](Cc2c[nH]c3ccccc23)NC(=O)[C@H]([C@@H](C)O)NC(=O)[C@@H]2CCCN2C(=O)[C@H]2CCCN2C(=O)[C@H](CCN)NC(=O)[C@H](CCC(N)=O)NC(=O)[C@H](CCN)NC(=O)[C@H](CCN)NC(=O)[C@H](Cc2c[nH]c3ccccc23)NC(=O)[C@H](CCN)NC(=O)[C@H](CCN)NC(=O)[C@H](CCCCN)NC(=O)[C@H](CCN)NC1=O [Example 13] (cyclo(TWI[Dab]K[Dab][Dab]W[Dab][Dab]Q[Dab][dP]P))
value.comparator: =
Average MIC (µg/mL): 0.40

compound: CC[C@H](C)[C@@H]1NC(=O)[C@H](Cc2c[nH]c3ccccc23)NC(=O)[C@H]([C@@H](C)O)NC(=O)[C@@H]2CCCN2C(=O)[C@H]2CCCN2C(=O)[C@H](CCN)NC(=O)C(C)(C)NC(=O)[C@H](CCN)NC(=O)[C@H](CCN)NC(=O)[C@H](Cc2c[nH]c3ccccc23)NC(=O)[C@H](CCN)NC(=O)[C@H](CCN)NC(=O)[C@H](CCCCN)NC(=O)[C@H](CCN)NC1=O [Example 5] (cyclo(TWI[Dab]K[Dab][Dab]W[Dab][Dab][Aib][Dab][dP]P))
value.comparator: =
Average MIC (µg/mL): 0.31

compound: CC[C@H](C)[C@@H]1NC(=O)[C@H](Cc2c[nH]c3ccccc23)NC(=O)[C@H]([C@@H](C)O)NC(=O)[C@@H]2CCCN2C(=O)[C@H]2CCCN2C(=O)[C@H](CCC(N)=O)NC(=O)[C@H](C)NC(=O)[C@H](CCN)NC(=O)[C@H](CCN)NC(=O)[C@H](Cc2c[nH]c3ccccc23)NC(=O)[C@H](CCN)NC(=O)[C@H](CCN)NC(=O)[C@H](CCCCN)NC(=O)[C@H](CCC(N)=O)NC1=O [Example 40] (cyclo(TWIQK[Dab][Dab]W[Dab][Dab]AQ[dP]P))
value.comparator: =
Average MIC (µg/mL): 0.55

compound: CC[C@H](C)[C@@H]1NC(=O)[C@H](Cc2c[nH]c3ccccc23)NC(=O)[C@H]([C@@H](C)O)NC(=O)[C@@H]2CCCN2C(=O)[C@H]2CCCN2C(=O)[C@H](CCN)NC(=O)[C@H](CC(=O)O)NC(=O)[C@H](CCN)NC(=O)[C@H](CCN)NC(=O)[C@H](Cc2c[nH]c3ccccc23)NC(=O)[C@H](CCN)NC(=O)[C@H](CCN)NC(=O)[C@H](CCCCN)NC(=O)[C@H](CCN)NC1=O [Example 14] (cyclo(TWI[Dab]K[Dab][Dab]W[Dab][Dab]D[Dab][dP]P))
value.comparator: >
Average MIC (µg/mL): 1
